The entries below come with measured GI50 values attached.
Tested on: A498
Test: NCI tumour cell line growth inhibition, 48 h
Activity calls are given as the source filed them. Cut-off read from the data, not from the text of the source: active = GI50 up to about 1.1 µM and inactive = higher.

In the examples that follow, each entry is paired with its recorded GI50.
| compound | target under test | GI50 |
| --- | --- | --- |
| CC(C)(C)C1CCC2c3c([nH]c4ccccc34)C3C(=O)N(c4cccc(Cl)c4)C(=O)C3C2C1 (configuration not stated) | A498 | 22.6 µM (inactive) |
| Cc1ccc(CC2(C(=O)O)Cc3ccc(C)cc3C2)cc1 (configuration not stated) | A498 | > 100 µM (inactive) |
| CC1CCC(O)(C(C)(C(=O)O)c2ccccc2)CC1 (configuration not stated) | A498 | 68.4 µM (inactive) |
| CC(=O)c1ccc2c(c1)CC1(C2)Cc2ccccc2C1=O (configuration not stated) | A498 | > 100 µM (inactive) |
| COC12OCCN(C)C1=CC(=O)C1N=NCC12 (configuration not stated) | A498 | > 100 µM (inactive) |
| Cc1ccc(N2C(=O)C=C(C3=C(O)C(=O)N(c4ccc(C)cc4)C3=O)C2=O)cc1 | A498 | > 100 µM (inactive) |
| CCOC(=O)NC(=S)NN(C)C1=NCC(C)(C)S1 | A498 | > 100 µM (inactive) |
| O=c1cnn(C/C=C/CBr)c(=O)[nH]1 | A498 | 14.9 µM (inactive) |

Ask: Find the recorded GI50 belonging to COP(=O)(/C=C/C(NC(=O)C(Cl)(Cl)Cl)c1ccccc1)OC (configuration not stated) and report it.
Reply: > 100 µM (inactive)

Ask: How about this compound: `CCOC(=O)N1c2ccccc2S(=O)(=O)c2ccccc21`
Reply: > 100 µM (inactive)

Ask: How about this compound: `NS(=O)(=O)c1nnc(NS(=O)(=O)c2ccccc2[N+](=O)[O-])s1`
Reply: > 100 µM (inactive)

Ask: How about this compound: `C=CCOn1c(C=C)nc2c(C)cccc21`
Reply: 5.66 µM (inactive)

###

System: SF-268
Test: NCI tumour cell line growth inhibition, 48 h
The source made the active and inactive calls. Cut-off read from the data, not from the text of the source: active = GI50 up to about 1.1 µM and inactive = higher.
Classes to choose from: active, inactive

Ask: Kindly provide the recorded test outcome for the following compound: `O=C1/C(=C/c2ccc(O)cc2)CCc2ccc([N+](=O)[O-])cc21`
Reply: inactive

Ask: How about this compound: `[O-][n+]1ccc(NO)c2ccccc21`
Reply: active

Ask: How about this compound: COc1cccc2c1C(=O)c1c(O)c3c(c(O)c1C2=O)C[C@@](O)(C(=O)CN1CCOCC1)C[C@@H]3OC1CC(N)C(O)C(C)O1 (stereo partly specified)
Reply: inactive

Ask: How about this compound: `Cc1ccc2c(O)cc(-c3ccc4ccccc4c3)nc2n1`
Reply: inactive

Ask: How about this compound: `Cc1cc(OC(=O)NCn2cc(-c3ccccc3)nn2)ccc1Cl`
Reply: inactive

Ask: How about this compound: `O=c1oc2ccccc2cc1-c1nnc(-c2ccccc2)s1`
Reply: inactive

Ask: How about this compound: `Cc1cc(S(=O)(=O)Nc2nc3cc(-c4ccc(Cl)cc4)sc3c(=O)n2N)c(S)cc1Cl`
Reply: inactive

Ask: How about this compound: Cc1ccc(C(=O)N2c3ccccc3N(C)n3cccc3C2CC(=O)O)cc1 (stereo unspecified)
Reply: inactive

Ask: How about this compound: `CCOP(=O)(COCCn1ncc(=O)[nH]c1=O)OCC`
Reply: inactive

Ask: How about this compound: CNC(=O)N(C1=NCC(C)S1)c1ccc(C)c(C)c1 (stereo unspecified)
Reply: inactive

Ask: How about this compound: `Cc1c(OCCCOc2ccc3c(=O)cc(-c4ccccc4)oc3c2C)ccc2c(=O)cc(-c3ccccc3)oc12`
Reply: inactive

Ask: How about this compound: C[C@H]1[C@H](C)N(Cc2ccccc2)P(=O)(C(O)/C=C/c2ccccc2)N1Cc1ccccc1 (stereo partly specified)
Reply: inactive

Ask: How about this compound: `O=[N+]([O-])c1ccc2[nH]c(-c3ccc(Cl)cc3)nc2c1`
Reply: inactive

Ask: How about this compound: `Cc1ccc(N2C(=O)C=C(C3=C(O)C(=O)N(c4ccc(C)cc4)C3=O)C2=O)cc1`
Reply: inactive

Ask: How about this compound: CC1OC(O[C@@H]2OC=C(C=O)[C@@]3(O)CC[C@H](C)[C@@H]23)C(O)C(O)C1O (stereo partly specified)
Reply: inactive

Ask: How about this compound: `O=C(NNC(=S)Nc1cccc(Cl)c1)c1cc(-c2ccccc2)nc2ccccc12`
Reply: inactive

Ask: How about this compound: Cc1ccccc1NC(=O)CC(=O)NNC(Sc1ccccc1)c1cc(/N=N/c2ccc(Br)cc2)ccc1O (stereo unspecified)
Reply: active
